- TARGET: T1, MBP-IKKα-6His (UniProt O15111 1-745)
- T1 sequence: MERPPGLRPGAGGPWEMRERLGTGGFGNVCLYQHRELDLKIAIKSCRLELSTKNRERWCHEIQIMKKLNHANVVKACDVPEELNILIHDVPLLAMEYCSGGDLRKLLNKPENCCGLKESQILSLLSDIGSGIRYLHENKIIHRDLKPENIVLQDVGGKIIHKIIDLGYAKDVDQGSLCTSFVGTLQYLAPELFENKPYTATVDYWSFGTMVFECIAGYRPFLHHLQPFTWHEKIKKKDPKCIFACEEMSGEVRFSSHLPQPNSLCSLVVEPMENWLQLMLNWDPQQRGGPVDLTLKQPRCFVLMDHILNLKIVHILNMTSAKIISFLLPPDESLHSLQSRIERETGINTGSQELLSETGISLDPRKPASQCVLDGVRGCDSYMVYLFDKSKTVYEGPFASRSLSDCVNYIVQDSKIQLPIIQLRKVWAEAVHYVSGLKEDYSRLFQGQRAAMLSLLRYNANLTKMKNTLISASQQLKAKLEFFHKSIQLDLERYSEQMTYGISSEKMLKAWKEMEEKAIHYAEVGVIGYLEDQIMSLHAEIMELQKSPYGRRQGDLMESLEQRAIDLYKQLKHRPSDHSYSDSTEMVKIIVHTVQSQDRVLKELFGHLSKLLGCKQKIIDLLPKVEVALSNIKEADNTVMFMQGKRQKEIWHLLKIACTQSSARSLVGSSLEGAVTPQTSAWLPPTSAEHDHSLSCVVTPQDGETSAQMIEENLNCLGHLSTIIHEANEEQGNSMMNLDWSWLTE
- ASSAY: SPR; biotin RNA immobilized on NeutrAvidin chip, protein analyte; text gives 6.09 ± 1.08 nM; SPR: 10 mM HEPES pH 7.4, 150 mM NaCl, 3 mM EDTA, 0.05% P20, 25 °C; pull-down: 25 mM HEPES pH 7.5, 150 mM NaCl, 0.05% NP-40, 10% glycerol, RT; EMSA: LightShift kit, 22 °C, 25 min
- CONDITION_NOTES: protein: recombinant; tags: N-term MBP (pMAL-c5X), C-term His6; chain copies: 2; label: 5' biotin; hairpin
RECORDED_ENDPOINT: pKd
Keep in mind that pKd stands for -log10 of concentration in molar terms.

Requested field: pKd. Item: UUGGAAUAACUUGCAGUGCCAGCAACUUGUUCACAA (structured_RNA) [5'-biotin A+B DRAIC RNA]
8.20
